Here, each record is paired with measured T/C data.
# Tested on: CD2F1 mice, L1210 leukemia ip, survival T/C
# Experiment Notes: NCI In Vivo Anticancer Drug Screen. Data for tumor model L1210 Leukemia (intraperitoneal) in CD2F1 (CDF1) mice
# Setup Conditions: endpoint: mean survival time; dose: 400.0 mg/kg/injection; schedule: Q01DX001 (ip); vehicle: Klucel (hydroxypropylcellulose) (HPC); higher = longer survival
Toxic doses and inconclusive results are not listed.
Property Name: T/C

[[record]]
compound = "O=c1n(-c2ccccc2)c(=O)n(-c2ccccc2)c(=O)n1-c1ccccc1"
system_tested = "CD2F1 mice, L1210 leukemia ip, survival T/C"
property_name = "T/C"
endpoint_value = "101 % of control"

[[record]]
compound = "C[N+]1(O)C2CCC1CC(O)C2 (stereo unspecified)"
system_tested = "CD2F1 mice, L1210 leukemia ip, survival T/C"
property_name = "T/C"
endpoint_value = "97 % of control"

[[record]]
compound = "NNC(=O)c1ccc(C(=O)NN)cc1"
system_tested = "CD2F1 mice, L1210 leukemia ip, survival T/C"
property_name = "T/C"
endpoint_value = "88 % of control"

[[record]]
compound = "CCN(c1ccccc1)S(=O)(=O)CS(=O)(=O)N(CC)c1ccccc1"
system_tested = "CD2F1 mice, L1210 leukemia ip, survival T/C"
property_name = "T/C"
endpoint_value = "93 % of control"

[[record]]
compound = "CC(=O)CC(C)(C)S(=O)(=O)Cc1ccccc1"
system_tested = "CD2F1 mice, L1210 leukemia ip, survival T/C"
property_name = "T/C"
endpoint_value = "96 % of control"

[[record]]
compound = "Cc1cc(C)c(C(=O)O)c(C(=O)O)c1"
system_tested = "CD2F1 mice, L1210 leukemia ip, survival T/C"
property_name = "T/C"
endpoint_value = "106 % of control"


---

Here, each record is paired with measured T/C data.
# Tested on: CD2F1 mice, L1210 leukemia ip, survival T/C
# Experiment Notes: NCI In Vivo Anticancer Drug Screen. Data for tumor model L1210 Leukemia (intraperitoneal) in CD2F1 (CDF1) mice
# Setup Conditions: endpoint: mean survival time; dose: 100.0 mg/kg/injection; schedule: Q04DX003 (ip); vehicle: other; higher = longer survival
Inconclusive results and toxic doses are left out.
Property Name: T/C

[[record]]
mol = "S=C(SN1CCCCC1)N1CCCCC1"
property_name = "T/C"
endpoint_value = "96 % of control"

[[record]]
mol = "Cc1cccc(SCC(=O)O)c1"
property_name = "T/C"
endpoint_value = "96 % of control"

[[record]]
mol = "Cc1c2ccncc2c(C)c2c1[nH]c1ccc(O)cc12"
property_name = "T/C"
endpoint_value = "102 % of control"

[[record]]
mol = "O=C(COc1cc(Cl)c(Cl)cc1Cl)OCCN(CCOC(=O)COc1cc(Cl)c(Cl)cc1Cl)C(=O)COc1ccc(Cl)cc1"
property_name = "T/C"
endpoint_value = "93 % of control"

[[record]]
mol = "CCNc1ncc2ccccc2c1-c1ccc(NCCCl)cc1"
property_name = "T/C"
endpoint_value = "87 % of control"

[[record]]
mol = "Cc1ccc(S(=O)(=O)OCCCCOS(=O)(=O)c2ccc(C)cc2)cc1"
property_name = "T/C"
endpoint_value = "105 % of control"


---

# Test system: CD2F1 mice, L1210 leukemia ip, survival T/C
# Experiment Notes: NCI In Vivo Anticancer Drug Screen. Data for tumor model L1210 Leukemia (intraperitoneal) in CD2F1 (CDF1) mice
# Setup Conditions: endpoint: mean survival time; dose: 150.0 mg/kg/injection; schedule: Q04DX003 (ip); vehicle: saline; higher = longer survival
# Protocol: The antitumor activity of compounds was measured in mice bearing transplantable tumors. Survival or tumor size were measured and the results are expressed as the measurement made in the treated group (T) divided by the measurement made in the vehicle treated control group (C). The tumor model used in this assay is L1210 Leukemia (intraperitoneal) in CD2F1 (CDF1) mice
Toxic doses and inconclusive results are not listed.
Property Name: T/C

[[record]]
mol = "[Cl][Pt][Cl].c1ccc([PH+](CC[PH+](c2ccccc2)c2ccccc2)c2ccccc2)cc1"
property_name = "T/C"
endpoint_value = "96 % of control"

[[record]]
mol = "ClCC[N+]12CC[N+](CCCl)(CC1)C2"
property_name = "T/C"
endpoint_value = "118 % of control"

[[record]]
mol = "O=S1(=O)OCCC1=C(c1ccccc1)c1ccccc1"
property_name = "T/C"
endpoint_value = "97 % of control"

[[record]]
mol = "CCCCCCCC(=O)N1C=CN(C(=O)CCCCCCC)C1"
property_name = "T/C"
endpoint_value = "98 % of control"


---

Here, each record is paired with measured T/C data.
# Test system: CD2F1 mice, L1210 leukemia ip, survival T/C
# Experiment Notes: NCI In Vivo Anticancer Drug Screen. Data for tumor model L1210 Leukemia (intraperitoneal) in CD2F1 (CDF1) mice
# Setup Conditions: endpoint: mean survival time; dose: 200.0 mg/kg/injection; schedule: Q04DX002 (ip); vehicle: saline with Tween-80; higher = longer survival
Inconclusive results and toxic doses are left out.
Property Name: T/C

[[record]]
compound = "COc1c(NC(=O)Nc2cccc(Cl)c2)cccc1[N+](=O)[O-]"
endpoint_value = "88 % of control"

[[record]]
compound = "S=C1NC=CC(S)N1 (stereo not drawn)"
endpoint_value = "98 % of control"

[[record]]
compound = "C=CCC1(CO)CCCCC1O (stereo not drawn)"
endpoint_value = "100 % of control"

[[record]]
compound = "CCOc1ccc(/C=C2N=C(/C=C/c3ccccc3)OC\\2=O)cc1"
endpoint_value = "95 % of control"

[[record]]
compound = "CCCCS(=O)(=O)CC(O)c1ccccc1 (stereo not drawn)"
endpoint_value = "101 % of control"

[[record]]
compound = "CC(=O)Nc1c(C#N)c(C#N)nn1C"
endpoint_value = "102 % of control"

[[record]]
compound = "CC(=O)Nc1ccc(Nc2ccc(C(=C3C=CC(=[N+](C)CCC#N)C=C3)c3ccc(N(C)CCC#N)cc3)cc2)cc1"
endpoint_value = "106 % of control"

[[record]]
compound = "NNC(=O)Nc1nn[nH]n1"
endpoint_value = "97 % of control"


---

# Test system: CD2F1 mice, L1210 leukemia ip, survival T/C
# Experiment Notes: NCI In Vivo Anticancer Drug Screen. Data for tumor model L1210 Leukemia (intraperitoneal) in CD2F1 (CDF1) mice
# Setup Conditions: endpoint: mean survival time; dose: 200.0 mg/kg/injection; schedule: Q01DX001 (ip); vehicle: saline with Tween-80; higher = longer survival
Inconclusive results and toxic doses are left out.
Property Name: T/C

[[record]]
compound = "CCSC(SCC)C(O)C(O)C1COC(C)(C)O1 (centres undefined)"
endpoint_value = "93 % of control"

[[record]]
compound = "CCc1ccc(C)[nH]c1=S"
endpoint_value = "102 % of control"

[[record]]
compound = "COC(=C\\c1ccccc1)/C(=N/Nc1ccc([N+](=O)[O-])cc1[N+](=O)[O-])c1ccccc1"
endpoint_value = "109 % of control"

[[record]]
compound = "COc1cc(-c2ccc(N)c(OC)c2)ccc1N"
endpoint_value = "96 % of control"

[[record]]
compound = "CP(=O)(c1ccccc1)c1ccccc1"
endpoint_value = "103 % of control"

[[record]]
compound = "Cc1ccc(S(=O)(=O)N2C(=O)OC3(CCCCC3)C2C)cc1 (centres undefined)"
endpoint_value = "95 % of control"

[[record]]
compound = "COc1cc(-c2cc(OC)c(O)c(OC)c2)cc(OC)c1O"
endpoint_value = "101 % of control"

[[record]]
compound = "CCC1(C)CCC2=C(CCC3C(C)(C(=O)O)CCCC23C)C1 (centres undefined)"
endpoint_value = "91 % of control"

[[record]]
compound = "CC1=NN(c2ccc([N+](=O)[O-])cc2)C(=O)C1[N+](=O)[O-] (centres undefined) (tested in a mixture with another compound)"
endpoint_value = "97 % of control"

[[record]]
compound = "CCCCCCCC=C(CCCCCCCC)CCCCCCCC"
endpoint_value = "97 % of control"

[[record]]
compound = "CS(=O)(=O)CC1C2CCC(CC2)C1CS(C)(=O)=O (centres undefined)"
endpoint_value = "106 % of control"

[[record]]
compound = "O=[N+]([O-])c1cc(Cl)c(Cl)cc1[N+](=O)[O-]"
endpoint_value = "90 % of control"

[[record]]
compound = "COC(=O)COc1ccccc1Cl"
endpoint_value = "102 % of control"

[[record]]
compound = "CNC(=S)NNC(=O)C(=O)NNC(=S)NC"
endpoint_value = "98 % of control"


---

# System: CD2F1 mice, L1210 leukemia ip, survival T/C
# Experiment Notes: NCI In Vivo Anticancer Drug Screen. Data for tumor model L1210 Leukemia (intraperitoneal) in CD2F1 (CDF1) mice
# Setup Conditions: endpoint: mean survival time; dose: 100.0 mg/kg/injection; schedule: Q01DX009 (ip); vehicle: Klucel (hydroxypropylcellulose) (HPC); higher = longer survival
Toxic doses and inconclusive results are not listed.
Here, each record is paired with measured T/C data.
Property Name: T/C

[[record]]
molecule = "OCC(O)C(O)C(O)C(O)C(O)CO (centres undefined)"
endpoint_value = "102 % of control"

[[record]]
molecule = "CSCCC(NC(=O)COc1ccc(Cl)cc1Cl)C(=O)O (centres undefined)"
endpoint_value = "89 % of control"

[[record]]
molecule = "CC1(OC(=O)c2ccccc2)CC(C)(C)[N+]([O-])=N1 (centres undefined)"
endpoint_value = "100 % of control"

[[record]]
molecule = "Cc1cncn1Cc1ccccc1"
endpoint_value = "108 % of control"

[[record]]
molecule = "C=Cc1cnc([N+](=O)[O-])n1C"
endpoint_value = "103 % of control"

[[record]]
molecule = "O=C(Nc1ccccc1C(F)(F)F)OCCOc1ccc(Br)cc1"
endpoint_value = "100 % of control"

[[record]]
molecule = "O=[N+]([O-])c1ccc(C(Cl)S(=O)(=O)c2ccccc2)cc1 (centres undefined)"
endpoint_value = "98 % of control"

[[record]]
molecule = "CCCCCCCCCCCCCCCCOc1ccc(NS(=O)(=O)c2ccc(NC(C)=O)cc2)cc1"
endpoint_value = "109 % of control"

[[record]]
molecule = "CC(=O)OC1C(OC(C)=O)C(OC(C)=O)C(OS(C)(=O)=O)C(OC(=O)c2ccccc2)C1OC(C)=O (centres undefined)"
endpoint_value = "96 % of control"

